All figures here come from ChEMBL document CHEMBL1136837.

Entries and their log10 of IC50
- Test system: Vaccinia virus
- Method Summary: Antiviral activity against Vaccinia virus
- Format: functional, organism-based, Orthopoxvirus vaccinia
- Assay Context: Orthopoxvirus vaccinia
Hey, these are logged values: log10 of IC50, nM being the unit before logging.

See these solved cases before continuing.
### Prompt What value of log10 of IC50 has been recorded for this entry: Cc1c(N)nc(N)n(CCOCP(=O)(O)O)c1=O
### Response 0.08

### Prompt What value of log10 of IC50 has been recorded for this entry: Nc1ccn(C[C@@H](CO)OCP(=O)(O)O)c(=O)n1 (stereo in doubt; form 2)
### Response 4.51

### Prompt What value of log10 of IC50 has been recorded for this entry: CC(C)(C)C(=O)OCOP(=O)(COCCn1cnc2c(N)ncnc21)OCOC(=O)C(C)(C)C
### Response 3.71

### Prompt What value of log10 of IC50 has been recorded for this entry: Nc1nc(N)c(Cl)c(OCCOCP(=O)(O)O)n1
### Response 0.08

### Prompt What value of log10 of IC50 has been recorded for this entry: Nc1ncnc2c1ncn2C[C@@H](CO)OCP(=O)(O)O
### Response 3.54

### Prompt What value of log10 of IC50 has been recorded for this entry: Nc1nc(N)c(CC(=O)O)c(OCCOCP(=O)(O)O)n1
### Response 0.08

More entries:
### Prompt What value of log10 of IC50 has been recorded for this entry: Cc1nn([C@H]2C[C@H](O)[C@@H](CO)S2)c(=O)nc1O
### Response 3.34

### Prompt What value of log10 of IC50 has been recorded for this entry: CCCCCCCCCCCCCCCCCCOCCOP1(=O)CO[C@@H](Cn2ccc(N)nc2=O)CO1 (stereo not given in full)
### Response 2.76

### Prompt What value of log10 of IC50 has been recorded for this entry: C=CCc1c(N)nc(N)nc1OCCOCP(=O)(O)O
### Response 0.08

### Prompt What value of log10 of IC50 has been recorded for this entry: Nc1nc(NCC(F)(F)F)c2ncn(CCOCP(=O)(O)O)c2n1
### Response 4.62
